Tested on: LNCap cells
Protocol: Cell viability assay, LNCap
Type: cell-based
Measurement Context: Homo sapiens, 144 h; LNCap cells, 6 days, CellTiterGlo; read-out: LNCap (GI50)
Measured Property: GI50

compound=CC[C@@]1(O)C(=O)OCc2c1cc1n(c2=O)Cc2cc3c(CN4CCN(C(=O)CCCCCOc5ccc(C(=O)N[C@H]6CC[C@H](Oc7ccc(C#N)c(Cl)c7)CC6)cc5)CC4)c(O)ccc3nc2-1 recorded_result="10 to 500 nM"
compound=CC[C@@]1(O)C(=O)OCc2c1cc1n(c2=O)Cc2cc3c(CN4CCN(CC5CCN(c6ccc(C(=O)N[C@H]7CC[C@H](Oc8ccc(C#N)c(Cl)c8)CC7)nn6)CC5)CC4)c(O)ccc3nc2-1 recorded_result="10 to 500 nM"
compound=CC[C@@]1(O)C(=O)OCc2c1cc1n(c2=O)Cc2cc3c(CN(C)C(=O)CO[C@H]4CC[C@H]5[C@@H]6CC[C@H]7CC(=O)CC[C@]7(C)[C@H]6CC[C@]45C)c(O)ccc3nc2-1 recorded_result="10 to 500 nM"
compound="CC[C@@]1(O)C(=O)OCc2c1cc1n(c2=O)Cc2cc3c(CN(C)C)c(OC4CCN(CCCCCCN(C)c5ccc([C@H]6C[C@@]7(C)C(CC[C@]7(OC(C)=O)C(C)=O)C7CCC8=CC(=O)CCC8=C76)cc5)CC4)ccc3nc2-1 (stereo partly drawn)" recorded_result="501 to 1000 nM"
compound=CC[C@@]1(O)C(=O)OCc2c1cc1n(c2=O)Cc2cc3c(CN4CCN(C(=O)C5CCN(c6ccc(C(=O)N[C@H]7CC[C@H](Oc8ccc(C#N)c(Cl)c8)CC7)nn6)CC5)CC4)c(O)ccc3nc2-1 recorded_result="10 to 500 nM"
compound=CC[C@@]1(O)C(=O)OCc2c1cc1n(c2=O)Cc2cc3c(CN4CCN(C(=O)CCCCCN(C)c5ccc([C@H]6C[C@@]7(C)[C@@H](CC[C@]7(OC(C)=O)C(C)=O)[C@@H]7CCC8=CC(=O)CCC8=C76)cc5)CC4)c(O)ccc3nc2-1 recorded_result="10 to 500 nM"
